Catalogue of Papp A→B at 60 min, 5 μM readings, one per entry.
System: P-gp (MDR1)
Test: MDCK-MDR1 permeability assay
Format: in vitro ADME
Conditions: dog, MDCK-MDR1, pH 7.4, @ 5 μM, apical to basolateral, without P-gp inhibitor
ATTRIBUTE_MEASURED: Papp A→B at 60 min, 5 μM

COMPOUND | REPORTED_VALUE
N#CC[C@H]1CC[C@H](n2c(CC(=O)Nc3cc[nH]n3)nc3cnc4[nH]ccc4c32)CC1 [Ex. 74] | < 0.4 ×10⁻⁶ cm/s
N#CC[C@H]1CC[C@H](n2c(CC(=O)NCC3CC3)nc3cnc4[nH]ccc4c32)CC1 [Ex. 3] | < 0.4 ×10⁻⁶ cm/s
CC(C)(C#N)CNC(=O)Cc1nc2cnc3[nH]ccc3c2n1[C@H]1CC[C@H](CC#N)CC1 [Ex. 22] | < 0.4 ×10⁻⁶ cm/s
N#CC[C@H]1CC[C@H](n2c(CC(=O)NCC3CCOCC3)nc3cnc4[nH]ccc4c32)CC1 [Ex. 10] | < 0.3 ×10⁻⁶ cm/s
N#CC[C@H]1CC[C@H](n2c(CC(=O)NCC3(O)CC3)nc3cnc4[nH]ccc4c32)CC1 [Ex. 85] | < 0.5 ×10⁻⁶ cm/s
N#CC[C@H]1CC[C@H](n2c(CC(=O)NCC3(O)CCC3)nc3cnc4[nH]ccc4c32)CC1 [Ex. 34] | 0.1 ×10⁻⁶ cm/s
N#CC[C@H]1CC[C@H](n2c(CC(=O)NC3CCOCC3)nc3cnc4[nH]ccc4c32)CC1 [Ex. 5] | < 0.4 ×10⁻⁶ cm/s
Cn1cc(NC(=O)Cc2nc3cnc4[nH]ccc4c3n2[C@H]2CC[C@H](CC#N)CC2)cn1 [Ex. 38] | < 0.4 ×10⁻⁶ cm/s
N#CCC1CCC(n2c(-c3c[nH]cn3)nc3cnc4[nH]ccc4c32)CC1 (stereo not shown) [Ex. 2] | 1.1 ×10⁻⁶ cm/s
N#CCC12CCC(NC(=O)Cc3nc4cnc5[nH]ccc5c4n3[C@H]3CC[C@H](CC#N)CC3)(CC1)C2 [Ex. 55] | < 0.4 ×10⁻⁶ cm/s
